Recorded measurements of IC50, one per entry
# tested_on: bovine GnRH receptor (Bos taurus, UniProt P32236)
# Construct: membranes were prepared from bovine pituitary; from tissue; host or cells: bovine pituitary
# Sequence (P32236 1-328): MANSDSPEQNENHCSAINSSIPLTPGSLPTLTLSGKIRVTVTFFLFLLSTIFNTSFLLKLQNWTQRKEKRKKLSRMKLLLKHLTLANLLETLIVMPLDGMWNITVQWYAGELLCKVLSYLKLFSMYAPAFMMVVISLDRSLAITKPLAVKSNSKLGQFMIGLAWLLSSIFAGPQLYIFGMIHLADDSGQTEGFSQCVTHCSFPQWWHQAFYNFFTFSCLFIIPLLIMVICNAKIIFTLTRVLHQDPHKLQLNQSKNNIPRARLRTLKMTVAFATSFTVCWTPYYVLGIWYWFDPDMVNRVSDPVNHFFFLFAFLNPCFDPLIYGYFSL
# experiment_notes: Radioligand binding, 125I-GnRH-A, bovine pituitary membranes
# condition_notes: means ± SE of at least three experiments performed in duplicate; read-out: Bovine IC50
Express the result in nM but write the number alone.

Quick note, IC50 for CCNC(=O)[C@@H]1CCCN1C(=O)[C@H](CCCNC(=N)N)NC(=O)[C@H](CC(C)C)NC(=O)[C@@H](C)NC(=O)[C@H](Cc1ccc(O)cc1)NC(=O)[C@H](CO)NC(=O)[C@H](Cc1c[nH]c2ccccc12)NC(=O)[C@H](Cc1c[nH]cn1)NC(=O)[C@@H]1CCC(=O)N1 [GnRH-A, [des-Gly^10,D-Ala^6]GnRH ethylamide, reference compound] landed at 0.3

Quick note, IC50 for CC(C)C[C@H](NC(=O)CNC(=O)[C@H](Cc1ccc(O)cc1)NC(=O)[C@H](CO)NC(=O)[C@H](Cc1c[nH]c2ccccc12)NC(=O)[C@H](Cc1c[nH]cn1)NC(=O)[C@@H]1CCC(=O)N1)C(=O)N[C@@H](CCCNC(=N)N)C(=O)N1CCC[C@H]1C(=O)NCC(N)=O [GnRH, reference compound] landed at 13

Quick note, IC50 for Cc1cc2c(cc1Cc1ccc(C(=O)NCC3CCCC(CNc4nccc(NCC5CCCO5)n4)C3)o1)C(C)(C)CCC2(C)C (stereo not drawn) landed at 320

Quick note, IC50 for "Cc1cc2c(cc1Cc1ccc(C(=O)NCc3cccc(C)c3C)o1)C(C)(C)CCC2(C)C" landed at 670

Quick note, IC50 for Cc1cc2c(cc1Cc1ccc(C(=O)NCC3CCC(C#N)CC3)o1)C(C)(C)CCC2(C)C (stereo not drawn) landed at 4380

Quick note, IC50 for "Cc1cc2c(cc1Cc1ccc(C(=O)NC[C@H]3CC[C@H](C(=O)O)CC3)o1)C(C)(C)CCC2(C)C" landed at 10400

###

# tested_on: human GnRH receptor (Homo sapiens)
# Construct: expressed in transfected cells; host or cells: HEK 293 (hGnRH-R/293, from Dr. Stuart Sealfon)
# Sequence (P30968 whole entry): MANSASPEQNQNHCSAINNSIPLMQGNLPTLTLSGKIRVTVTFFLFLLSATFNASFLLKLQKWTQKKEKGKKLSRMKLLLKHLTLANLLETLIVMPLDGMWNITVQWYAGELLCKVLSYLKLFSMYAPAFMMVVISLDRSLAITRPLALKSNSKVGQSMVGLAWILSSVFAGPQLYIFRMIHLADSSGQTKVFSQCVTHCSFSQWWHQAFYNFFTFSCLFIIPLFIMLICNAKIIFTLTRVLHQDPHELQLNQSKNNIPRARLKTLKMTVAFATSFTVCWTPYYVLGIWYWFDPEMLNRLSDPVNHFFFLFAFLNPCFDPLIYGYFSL
# experiment_notes: Radioligand binding, 125I-GnRH-A displacement, membranes of HEK 293 cells with human GnRH receptor
# condition_notes: 1 h, repeat of % Inhib. at 1 uM; read-out: Repeats @ 1 uM hGnRH
reported_property: inhibition at 1 µM (%)
Express the result in % but write the number alone.

Illustrative cases are given below, each with its answer.
>  <molecule>
COc1cc(OC)c(CNC(=O)c2ccc(Cc3cc4c(cc3C)C(C)(C)CCC4(C)C)o2)c(OC)c1 [drawing 1094]

>  <tested_on>
human GnRH receptor (Homo sapiens)

>  <unit>
%

>  <inhibition at 1 µM>
13

$$$$
>  <molecule>
Cc1cc2c(cc1Cc1ccc(C(=O)NCCC#N)o1)C(C)(C)CCC2(C)C [drawing 1179]

>  <tested_on>
human GnRH receptor (Homo sapiens)

>  <unit>
%

>  <inhibition at 1 µM>
44

$$$$
>  <molecule>
Cc1cc2c(cc1Cc1ccc(C(=O)NCc3ccc(F)c(C(F)(F)F)c3)o1)C(C)(C)CCC2(C)C

>  <tested_on>
human GnRH receptor (Homo sapiens)

>  <unit>
%

>  <inhibition at 1 µM>
16

$$$$
>  <molecule>
Cc1cc2c(cc1Cc1ccc(C(=O)N[C@@H](CO)Cc3c[nH]cn3)o1)C(C)(C)CCC2(C)C

>  <tested_on>
human GnRH receptor (Homo sapiens)

>  <unit>
%

>  <inhibition at 1 µM>
-27

$$$$
>  <molecule>
COc1cc(CNC(=O)c2ccc(Cc3cc4c(cc3C)C(C)(C)CCC4(C)C)o2)cc(OC)c1OC [drawing 995]

>  <tested_on>
human GnRH receptor (Homo sapiens)

>  <unit>
%

>  <inhibition at 1 µM>
62

$$$$

Quick note, inhibition at 1 µM for Cc1cc2c(cc1Cc1ccc(C(=O)NCc3ccco3)o1)C(C)(C)CCC2(C)C [drawing 1089] landed at 82

Quick note, inhibition at 1 µM for "Cc1cc2c(cc1Cc1ccc(C(=O)NC(C)(C)c3ccccc3)o1)C(C)(C)CCC2(C)C" landed at 45

Quick note, inhibition at 1 µM for "Cc1cc2c(cc1Cc1ccc(C(=O)Nc3nccc(Nc4cc(C(F)(F)F)cc(C(F)(F)F)c4)n3)o1)C(C)(C)CCC2(C)C" landed at -30

Quick note, inhibition at 1 µM for "Cc1cc2c(cc1Cc1ccc(C(=O)N3CCN(c4cccc(O)c4)CC3)o1)C(C)(C)CCC2(C)C" landed at -3

Quick note, inhibition at 1 µM for "CCN(Cc1ccncc1)C(=O)c1ccc(Cc2cc3c(cc2C)C(C)(C)CCC3(C)C)o1" landed at 2

Quick note, inhibition at 1 µM for "CCN(CCc1ccccn1)C(=O)c1ccc(Cc2cc3c(cc2C)C(C)(C)CCC3(C)C)o1" landed at 8

Quick note, inhibition at 1 µM for Cc1cc2c(cc1Cc1ccc(C(=O)NCCc3ccc4c(c3)OCO4)o1)C(C)(C)CCC2(C)C [drawing 1055] landed at 56

Quick note, inhibition at 1 µM for Cc1cc2c(cc1Cc1ccc(C(=O)NC(C)CCc3ccccc3)o1)C(C)(C)CCC2(C)C (stereo not drawn) [drawing 1130] landed at 52

Quick note, inhibition at 1 µM for "Cc1cc2c(cc1Cc1ccc(C(=O)NC3CCN(Cc4ccccc4)CC3)o1)C(C)(C)CCC2(C)C" landed at 14

Quick note, inhibition at 1 µM for Cc1cc2c(cc1Cc1ccc(C(=O)NCCc3cccs3)o1)C(C)(C)CCC2(C)C [drawing 1023] landed at 64

Quick note, inhibition at 1 µM for "Cc1cc2c(cc1Cc1ccc(C(=O)N(Cc3ccccc3)Cc3ccccc3)o1)C(C)(C)CCC2(C)C" landed at 3

Quick note, inhibition at 1 µM for Cc1cc2c(cc1Cc1ccc(C(=O)NCCc3cccnc3)o1)C(C)(C)CCC2(C)C [drawing 1032] landed at 90

Quick note, inhibition at 1 µM for "Cc1cc2c(cc1Cc1ccc(C(=O)NCCCC(=O)NC(c3ccccc3)c3ccccc3)o1)C(C)(C)CCC2(C)C" landed at 28

Quick note, inhibition at 1 µM for COc1cc(CCNC(=O)c2ccc(Cc3cc4c(cc3C)C(C)(C)CCC4(C)C)o2)cc(OC)c1 [drawing 1148] landed at 48

Quick note, inhibition at 1 µM for "Cc1cc2c(cc1Cc1ccc(C(=O)NCc3ccccc3OC(F)(F)F)o1)C(C)(C)CCC2(C)C" landed at 41

Quick note, inhibition at 1 µM for COc1ccccc1CCNC(=O)c1ccc(Cc2cc3c(cc2C)C(C)(C)CCC3(C)C)o1 [drawing 1114] landed at 70

Quick note, inhibition at 1 µM for Cc1cc2c(cc1Cc1ccc(C(=O)NCc3ccc(N(C)C)cc3)o1)C(C)(C)CCC2(C)C [drawing 1220] landed at 85

Quick note, inhibition at 1 µM for Cc1cc2c(cc1Cc1ccc(C(=O)NCc3ccccc3Cl)o1)C(C)(C)CCC2(C)C [drawing 1103] landed at 84

Quick note, inhibition at 1 µM for "Cc1cc2c(cc1Cc1ccc(C(=O)N3CCN(c4ccccc4[N+](=O)[O-])CC3)o1)C(C)(C)CCC2(C)C" landed at -20

Quick note, inhibition at 1 µM for Cc1cc2c(cc1Cc1ccc(C(=O)NCc3ccccc3F)o1)C(C)(C)CCC2(C)C [drawing 1090] landed at 89

Quick note, inhibition at 1 µM for Cc1cc2c(cc1Cc1ccc(C(=O)NCC(O)c3ccc(O)c(O)c3)o1)C(C)(C)CCC2(C)C (stereo not drawn) landed at 11

Quick note, inhibition at 1 µM for "Cc1cc2c(cc1Cc1ccc(C(=O)N(C)[C@H](C)[C@@H](O)c3ccccc3)o1)C(C)(C)CCC2(C)C" landed at 23

Quick note, inhibition at 1 µM for "Cc1cc2c(cc1Cc1ccc(C(=O)N(C)CCc3ccccc3)o1)C(C)(C)CCC2(C)C" landed at 9

Taken from patent US7101878B1.
